pIC50: −log10 of the molar value.
Observed pIC50, system ERα_LBD(GST) (Homo sapiens (Human), UniProt P03372).

Solved entries (count: 4):
Compound: C[C@@H]1Cc2c([nH]c3ccccc23)[C@@H](c2cnc(N3CCC4(CC3)C[C@@H](CN3CCN5c6ccc(C(=O)N[C@H]7CCC(=O)NC7=O)nc6OC[C@H]5C3)CO4)nc2)N1CC(F)F [Compound A63]
pIC50: ≤ 8.00

Compound: COc1cc(N2CCC(CN3CCN4c5ccc6c(c5OC[C@H]4C3)CN([C@@H]3CCC(=O)NC3=O)C6=O)CC2)ccc1[C@@H]1c2[nH]c3ccccc3c2C[C@@H](C)N1CC(F)F [Compound A37]
pIC50: > 8.00

Compound: COc1cc(N2CCC(CN3CCN4c5ccc6c(c5OC[C@H]4C3)CN([C@H]3CCC(=O)NC3=O)C6=O)CC2)ccc1[C@@H]1c2[nH]c3ccccc3c2C[C@@H](C)N1CC(F)F [Compound A19]
pIC50: > 8.00

Compound: C[C@@H]1Cc2c([nH]c3ccccc23)[C@@H](c2cnc(N3CCC(CN4CCC5(CC4)COc4cc6c(cc45)CN(C4CCC(=O)NC4=O)C6=O)CC3)nc2)N1CC(F)(F)CO (some centres unmarked) [Compound A36]
pIC50: > 8.00

Input: GET /values?readout=pIC50&item= C[C@@H]1Cc2c([nH]c3ccccc23)[C@@H](c2cnc(N3CCC4(CC3)C[C@@H](CN3CCC(c5ccc(N[C@@H]6CCC(=O)NC6=O)cc5)CC3)CO4)nc2)N1CC(F)F [Compound A70]
Output: > 8.00
